- System: MDA-MB-231
- MEASUREMENT_PROTOCOL: Growth inhibition of human MDA-MB-231 cells incubated for 3 days by SRB assay
- Format: functional, cell-based
- PROTOCOL_CONDITIONS: MDA-MB-231, 72 h
PROPERTY_MEASURED: IC50 (µM)

A: O=C1Nc2ccccc2/C1=C1/Nc2ccccc2/C1=N\O
B: CN1CCN(c2cccc(N/C=C3\C(=O)Nc4ccc(NC(=O)c5c(F)cccc5F)cc43)c2)CC1
(Q) Short answer wanted: higher IC50, A or B ? Identify your pick by its label.
(A) A
(A: 7.59 µM, B: 4.43 µM)

The measured values listed here are drawn from ChEMBL document CHEMBL4052679.
